method: self-splicing fitness, log relative to wild type (ln ratio); higher = more splicing; Tetrahymena group I intron in knt gene, E. coli kanamycin selection, DiMSum; sequences stand for … in CUCUCU…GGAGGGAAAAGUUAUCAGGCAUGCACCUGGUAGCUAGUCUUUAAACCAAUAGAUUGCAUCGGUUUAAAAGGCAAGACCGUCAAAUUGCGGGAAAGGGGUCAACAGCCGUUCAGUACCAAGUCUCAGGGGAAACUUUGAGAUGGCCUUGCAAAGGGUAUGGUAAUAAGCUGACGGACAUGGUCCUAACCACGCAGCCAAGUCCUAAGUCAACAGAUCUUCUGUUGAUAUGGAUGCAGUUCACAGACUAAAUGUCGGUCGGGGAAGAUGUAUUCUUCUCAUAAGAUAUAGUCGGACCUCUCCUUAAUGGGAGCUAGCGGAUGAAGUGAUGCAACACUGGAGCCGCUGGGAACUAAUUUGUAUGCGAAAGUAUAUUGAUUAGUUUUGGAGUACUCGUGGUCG;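 note: selection with 25 µg/mL kanamycin versus none on LB agar overnight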
particulars: 30 °C
Label True for high-side self-splicing fitness (ln) (at or above -3) and False for low-side self-splicing fitness (ln) (below it).

>  <chain>
CUGUAGCAAUAUUACGCUAG

>  <answer-label>
False

$$$$
>  <chain>
AUCGAGCAAUAUUACGCGUA

>  <answer-label>
True

$$$$
>  <chain>
GAUCAGCAAUAUUACGGUGA

>  <answer-label>
True

$$$$
>  <chain>
GAUCAGCAAUAUUACGAUCU

>  <answer-label>
False

$$$$
>  <chain>
UAGUAGCAAUAUUACGACGA

>  <answer-label>
True

$$$$
>  <chain>
ACGAAGCAAUAUUACGCCGU

>  <answer-label>
False

$$$$
>  <chain>
GUGAAGCAAUAUUACGGAUU

>  <answer-label>
True

$$$$
>  <chain>
CGCUAGCAAUAUUACGAACG

>  <answer-label>
True

$$$$
>  <chain>
AGCGAGCAAUAUUACGAGGG

>  <answer-label>
True

$$$$
>  <chain>
AGGGAGCAAUAUUACGGAGA

>  <answer-label>
True

$$$$
>  <chain>
UAACAGCAAUAUUACGCCCG

>  <answer-label>
True

$$$$
>  <chain>
CAUGAGCAAUAUUACGACUG

>  <answer-label>
True

$$$$
>  <chain>
CUGCAGCAAUAUUACGGCGC

>  <answer-label>
False

$$$$
>  <chain>
GUGUAGCAAUAUUACGGAUA

>  <answer-label>
True

$$$$
>  <chain>
AUCAAGCAAUAUUACGGUAC

>  <answer-label>
False

$$$$
>  <chain>
CCACAGCAAUAUUACGCGUA

>  <answer-label>
True

$$$$
>  <chain>
UACAAGCAAUAUUACGCCUA

>  <answer-label>
True

$$$$
>  <chain>
GCCGAGCAAUAUUACGGCAC

>  <answer-label>
True

$$$$
>  <chain>
ACUUAGCAAUAUUACGAUAA

>  <answer-label>
True

$$$$
>  <chain>
CGCAAGCAAUAUUACGAAUU

>  <answer-label>
True

$$$$
>  <chain>
UAUAAGCAAUAUUACGCCCA

>  <answer-label>
True

$$$$
>  <chain>
UAUGAGCAAUAUUACGCCUU

>  <answer-label>
False

$$$$
>  <chain>
ACGUAGCAAUAUUACGGGAA

>  <answer-label>
True

$$$$
>  <chain>
UGUCAGCAAUAUUACGCUCA

>  <answer-label>
True

$$$$
>  <chain>
GUCCAGCAAUAUUACGCCUU

>  <answer-label>
True

$$$$
>  <chain>
AAUGAGCAAUAUUACGAGAA

>  <answer-label>
True

$$$$
>  <chain>
UGGCAGCAAUAUUACGGUUA

>  <answer-label>
True

$$$$
>  <chain>
UGAGAGCAAUAUUACGUUGU

>  <answer-label>
False

$$$$
>  <chain>
AUGUAGCAAUAUUACGCAAU

>  <answer-label>
True

$$$$
>  <chain>
GCCGAGCAAUAUUACGGUCA

>  <answer-label>
True

$$$$
>  <chain>
GAUCAGCAAUAUUACGGUUA

>  <answer-label>
True

$$$$
>  <chain>
UUCGAGCAAUAUUACGAUCA

>  <answer-label>
True

$$$$
>  <chain>
AGGUAGCAAUAUUACGCUCU

>  <answer-label>
True

$$$$
>  <chain>
CUACAGCAAUAUUACGACGU

>  <answer-label>
False

$$$$
>  <chain>
GCUUAGCAAUAUUACGGCCU

>  <answer-label>
True

$$$$
>  <chain>
GGCAAGCAAUAUUACGAGCG

>  <answer-label>
True

$$$$

Cited source: the supplement of paper PMC7877785
